- Test system: TCR-transfectant cells specific for DQ2.5-glia-α2
- assay-explanation: Inhibition by primary amines of activation of DQ2.5-glia-α2-specific T cells by TG2-specific B cells, IL-2 ELISA
- Format: cell-based
- condition-description: 5 µM N-α-gliadin 33-mer, TG2, CaCl2, amine 0-1000 µM, IL-2 ELISA; DQ2.5-glia-α2, Figure 5
measurement-type: IC50 (µM)

P. NCCCNCCCCNCCCN [spermine]
Q. NCCCCCNC(=O)CCCC[C@@H]1SC[C@@H]2NC(=O)N[C@@H]21 [5-BP, 5‐biotinamido‐pentylamine]
Between P and Q , which one has the lower reported IC50 value? Pick one; state its label.
Q

----------
- Test system: TG2:gluten complexes uptake by TG2-specific B cells (A20, BCR 679-14-E06)
- assay-explanation: Inhibition by primary amines of TG2:gluten complex uptake by TG2-specific B cells, flow cytometry
- Type: cell-based, Murine A20 B lymphoma; recombinant human TG2
- condition-description: B-cell, 10 min, inhibition of FITC-γ1 (5 µM) uptake, TG2 3 µg/mL, 2 mM CaCl2, RPMI, 37°C 10 min; Figure 4; read-out: IC50
measurement-type: IC50 (µM)
# value in µM; strip the unit string

Any idea what IC50 was measured for NCCCNCCCCNCCCN ?
45.3

----------
- Tested on: TG2:gluten complexes uptake by TG2-specific B cells (A20, BCR 679-14-E06)
- assay-explanation: Inhibition by primary amines of TG2:gluten complex uptake by TG2-specific B cells, flow cytometry
- Type: cell-based, Murine A20 B lymphoma; recombinant human TG2
- condition-description: B-cell, 10 min, inhibition of FITC-α2 (5 µM) uptake, TG2 3 µg/mL, 2 mM CaCl2, RPMI, 37°C 10 min; Figure 4; read-out: IC50
- Experimental: Murine A20 B lymphoma cells engineered to express either the celiac patient‐derived TG2‐specific BCR 679‐14‐E06 or the non‐TG2‐specific BCR 693‐2‐F02 as human IgD are previously described. […] B‐cell uptake of gluten peptides was measured essentially as previously described. […] Cells were washed, fixed in 2% methanol‐free formaldehyde (Invitrogen), resuspended in 2% fetal calf serum (FCS)/PBS, and analyzed by flow cytometry (Attune NxT Flow Cytometer, Thermo Scientific). […]
pIC50: −log10 of the molar value.
measurement-type: pIC50

>>> recorded_number("NCCCNCCCCNCCCN [spermine]")
4.53
>>> recorded_number("NCCCCCNC(=O)CCCC[C@@H]1SC[C@@H]2NC(=O)N[C@@H]21 [5-BP, 5‐biotinamido‐pentylamine]")
4.64

----------
- System: TCR-transfectant cells specific for DQ2.5-glia-α2
- assay-explanation: Inhibition by primary amines of activation of DQ2.5-glia-α2-specific T cells by TG2-specific B cells, IL-2 ELISA
- Assay type: cell-based
- condition-description: 5 µM N-α-gliadin 33-mer, TG2, CaCl2, amine 0-1000 µM, IL-2 ELISA; DQ2.5-glia-α2, replicate Figure S5B
pIC50: −log10 of the molar value.
measurement-type: pIC50

>>> recorded_number("NCCCNCCCCNCCCN")
4.10
>>> recorded_number("NCCCCCNC(=O)CCCC[C@@H]1SC[C@@H]2NC(=O)N[C@@H]21")
4.03

----------
- Tested on: TG2:gluten complexes uptake by TG2-specific B cells (A20, BCR 679-14-E06)
- assay-explanation: Inhibition by primary amines of TG2:gluten complex uptake by TG2-specific B cells, flow cytometry
- Assay type: cell-based, Murine A20 B lymphoma; recombinant human TG2
- condition-description: B-cell, 10 min, inhibition of FITC-ω2 (5 µM) uptake, TG2 3 µg/mL, 2 mM CaCl2, RPMI, 37°C 10 min; Figure 4; read-out: IC50
measurement-type: IC50 (µM)

P. NCCCCCNC(=O)CCCC[C@@H]1SC[C@@H]2NC(=O)N[C@@H]21 [5-BP, 5‐biotinamido‐pentylamine]
Q. NCCCNCCCCNCCCN [spermine]
Short answer wanted: higher IC50, P or Q ? Pick one; state its label.
P
(P: 20.7 µM, Q: 14 µM)
